System Name: T1, human integrin β3(P685-F727) TM peptide incorporating β3(C687S) (human, UniProt P05106 711-753, C687S)
T1 chain (looked up): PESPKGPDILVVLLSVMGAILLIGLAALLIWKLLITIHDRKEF
Assay Protocol: ITC
Quantity Measured: KXY (association equilibrium constant on the mole fraction scale)

Binder | Reported
ALEERAIPIHVVLVGVLGGLLLLTILVLAMWKVGFFKRNRP (peptide, UniProt P08514 989-1029, looked up) [integrin αIIb(A958-P998) TM peptide W967H/W968V] | 7000
ALEERAIPIWWVLVGVLGGLLLLTILVLAMHKVGFFKRNRP (peptide, UniProt P08514 989-1029, looked up) [integrin αIIb(A958-P998) TM peptide W988H] | 3540
ALEERAIPIWWVLVGVLGGLLLLTILVLAMAKVGFFKRNRP (peptide, UniProt P08514 989-1029, looked up) [integrin αIIb(A958-P998) TM peptide W988A] | 3320
ALEERAIPIFVVLVGVLGGLLLLTILVLAMWKVGFFKRNRP (peptide, UniProt P08514 989-1029, looked up) [integrin αIIb(A958-P998) TM peptide W967F/W968V] | 6500
ALEERAIPIWWVLVGVLGGLLLLTILVLAMVKVGFFKRNRP (peptide, UniProt P08514 989-1029, looked up) [integrin αIIb(A958-P998) TM peptide W988V] | 2900

1 = ALEERAIPIWWVLVGVLGGLLLLTILVLAMFKVGFFKRNRP (peptide, UniProt P08514 989-1029, looked up) [integrin αIIb(A958-P998) TM peptide W988F]
2 = ALEERAIPIVVVLVGVLGGLLLLTILVLAMWKVGFFKRNRP (peptide, UniProt P08514 989-1029, looked up) [integrin αIIb(A958-P998) TM peptide W967V/W968V]
**Query** // task: argmin of KXY (association equilibrium constant on the mole fraction scale) over [ 1 , 2 ] Pick one; state its label.
**Result** 1

Numbers sourced from paper PMC11025564.
